Taken from ChEMBL document CHEMBL1201862.

Test system: NCI-H460
PROCEDURE_TEXT: NCI tumour cell line growth inhibition, 48 h
The source made the active and inactive calls. Cut-off read from the data, not from the text of the source: active = GI50 up to about 1.1 µM and inactive = higher.
MEASURED_ATTRIBUTE: GI50

molecule="CC(C)(C)NCC(O)c1ccc(O)c(CO)n1 (centres undefined)" reported="> 100 µM (inactive)"
molecule=Cn1ncc2cc3c(Nc4ccc(Cl)cc4)cccc3nc21 reported="8.61 µM (inactive)"
molecule=CCOC(=O)c1[nH]c(-c2[nH]c(-c3[nH]c(-c4[nH]c(C(=O)OCC)c(C)c4C(=O)OCC)c(C(=O)OCC)c3C)c(C)c2C(=O)OCC)c(C(=O)OCC)c1C reported="> 100 µM (inactive)"
molecule="Cc1ccc(C)c(N2C(=O)C(=O)C(c3nc4ccccc4o3)/C(=N/N)C2=O)c1 (centres undefined)" reported="> 100 µM (inactive)"
